assay: Concentration of (S)-methoprene on dog hair following oral administration (HPLC); assay type: in vivo, dogs; conditions: random-bred, dog, hair, po, 50 mg/kg, Dog #98; oral 50 mg/kg one time on Day 0; day 21
attribute-measured: concentration at 21 day (ng/g)

- COC(C)(C)CCC[C@H](C)C/C=C/C(C)=C/C(=O)OC(C)C [(S)-Methoprene]: 231

====

assay: Concentration of (S)-methoprene on dog hair following oral administration (HPLC); assay type: in vivo, dogs; settings: random-bred, dog, hair, po, 50 mg/kg, Dog #98; oral 50 mg/kg one time on Day 0; day 10
attribute-measured: concentration at 10 day (ng/g)

- COC(C)(C)CCC[C@H](C)C/C=C/C(C)=C/C(=O)OC(C)C [(S)-Methoprene]: 167
